Numbers sourced from paper PMC10797613.

- TARGET: 5-HT2C receptor (Homo sapiens)
- Sequence (P28335 33-458): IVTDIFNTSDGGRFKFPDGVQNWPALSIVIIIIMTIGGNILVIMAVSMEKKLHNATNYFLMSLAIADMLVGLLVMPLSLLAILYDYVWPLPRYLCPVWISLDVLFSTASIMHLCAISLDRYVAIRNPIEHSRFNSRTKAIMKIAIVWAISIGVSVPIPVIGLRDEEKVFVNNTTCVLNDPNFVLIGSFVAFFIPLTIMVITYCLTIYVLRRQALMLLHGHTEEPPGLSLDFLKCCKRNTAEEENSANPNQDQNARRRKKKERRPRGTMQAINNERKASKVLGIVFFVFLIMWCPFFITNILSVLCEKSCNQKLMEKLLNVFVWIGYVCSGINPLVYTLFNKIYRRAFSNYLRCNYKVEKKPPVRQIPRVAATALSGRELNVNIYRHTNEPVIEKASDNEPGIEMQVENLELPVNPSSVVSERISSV
- PROCEDURE_TEXT: Gαq-mediated calcium flux assay
- Type: cell-based
TEST_READOUT: 5-HT2C functional activity (in words)

1. CC(C)NCCc1c[nH]c2cccc(O)c12.O=C(O)/C=C/C(=O)O | weak partial agonists
2. O=C(O)/C=C/C(=O)O.Oc1cccc2[nH]cc(CCNC3CCCCC3)c12 | inactive
3. CC(C)(C)NCCc1c[nH]c2cccc(O)c12.CC(C)(C)NCCc1c[nH]c2cccc(O)c12.O=C(O)/C=C/C(=O)O | inactive
4. CCCCNCCc1c[nH]c2cccc(O)c12.O=C(O)/C=C/C(=O)O | weak partial agonists

====

- TARGET: H1 (Homo sapiens, UniProt P35367)
- Sequence (P35367 whole entry): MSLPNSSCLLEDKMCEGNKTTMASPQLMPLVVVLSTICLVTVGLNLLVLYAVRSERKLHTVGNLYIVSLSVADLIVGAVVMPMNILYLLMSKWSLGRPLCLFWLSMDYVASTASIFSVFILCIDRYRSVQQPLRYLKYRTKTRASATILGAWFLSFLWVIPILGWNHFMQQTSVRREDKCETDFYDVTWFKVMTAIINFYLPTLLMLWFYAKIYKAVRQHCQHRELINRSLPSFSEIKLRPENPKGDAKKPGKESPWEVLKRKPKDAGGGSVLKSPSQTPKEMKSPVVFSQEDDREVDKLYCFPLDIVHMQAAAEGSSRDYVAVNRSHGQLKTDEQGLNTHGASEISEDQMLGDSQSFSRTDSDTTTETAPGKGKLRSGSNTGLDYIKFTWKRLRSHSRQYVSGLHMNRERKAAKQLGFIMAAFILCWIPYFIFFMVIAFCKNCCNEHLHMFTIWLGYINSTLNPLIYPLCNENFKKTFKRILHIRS
pKi: −log10 of the molar value.
TEST_READOUT: pKi

1) C=CCNCCc1c[nH]c2cccc(O)c12.C=CCNCCc1c[nH]c2cccc(O)c12.O=C(O)/C=C/C(=O)O | 6.33
